target: T1, monkey GPC3-His protein (monkey); test: ELISA, monkey GPC3-His coated;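 further: Plate-coated antigen at 1 µg/mL, antibody binding 2 h at 37 °C, detected with HRP-labeled secondary antibody and TMB, absorbance at 450 nm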
T1 construct: Bought recombinant protein; also called monkey GPC3 protein
Provide the recorded OD450 at 100 nM for the entries that follow.
Field: numeric (OD450). Do not append units.

What does the data say about its OD450 at 100 nM? Entry: F1.120.16 (antibody, human IgG1, kappa, V domains shown, Human-murine chimeric antibody) VH: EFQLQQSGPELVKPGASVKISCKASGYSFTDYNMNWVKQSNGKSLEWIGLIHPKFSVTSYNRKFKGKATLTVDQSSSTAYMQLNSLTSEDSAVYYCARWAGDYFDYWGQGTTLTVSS VL: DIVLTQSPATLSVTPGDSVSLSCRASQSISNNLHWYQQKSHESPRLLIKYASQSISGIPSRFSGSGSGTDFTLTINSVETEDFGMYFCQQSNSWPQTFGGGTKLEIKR
2.14

What do you get for F1.57.21 (antibody, human IgG1, kappa, V domains shown, Human-murine chimeric antibody) VH: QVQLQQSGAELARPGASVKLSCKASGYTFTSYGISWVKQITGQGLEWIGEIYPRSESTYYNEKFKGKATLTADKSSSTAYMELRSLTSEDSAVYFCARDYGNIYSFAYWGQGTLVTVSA VL: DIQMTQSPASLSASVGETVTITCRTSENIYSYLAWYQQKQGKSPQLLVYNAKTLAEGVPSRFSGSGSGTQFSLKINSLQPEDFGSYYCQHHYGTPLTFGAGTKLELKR ?
2.3

What do you get for F4.13.7 (antibody, human IgG1, kappa, V domains shown, Human-murine chimeric antibody) VH: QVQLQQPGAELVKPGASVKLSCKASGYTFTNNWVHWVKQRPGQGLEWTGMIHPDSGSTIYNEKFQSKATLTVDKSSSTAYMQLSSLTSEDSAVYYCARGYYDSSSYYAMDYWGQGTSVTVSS VL: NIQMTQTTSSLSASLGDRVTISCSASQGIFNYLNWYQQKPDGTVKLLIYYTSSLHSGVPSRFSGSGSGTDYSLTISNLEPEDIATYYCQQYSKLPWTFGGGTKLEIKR ?
2.44

What do you get for F1.92.17 (antibody, human IgG1, kappa, V domains shown, Human-murine chimeric antibody) VH: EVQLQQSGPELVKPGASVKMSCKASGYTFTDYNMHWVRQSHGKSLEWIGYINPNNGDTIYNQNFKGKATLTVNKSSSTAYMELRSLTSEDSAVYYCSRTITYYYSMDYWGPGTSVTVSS VL: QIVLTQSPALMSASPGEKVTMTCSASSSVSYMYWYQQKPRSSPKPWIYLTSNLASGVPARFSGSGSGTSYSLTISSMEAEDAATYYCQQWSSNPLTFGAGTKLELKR ?
0.58

What do you get for F1.145.22 (antibody, human IgG1, kappa, V domains shown, Human-murine chimeric antibody) VH: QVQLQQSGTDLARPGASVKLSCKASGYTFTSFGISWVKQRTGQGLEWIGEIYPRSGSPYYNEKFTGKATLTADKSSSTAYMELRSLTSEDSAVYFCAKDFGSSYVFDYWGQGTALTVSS VL: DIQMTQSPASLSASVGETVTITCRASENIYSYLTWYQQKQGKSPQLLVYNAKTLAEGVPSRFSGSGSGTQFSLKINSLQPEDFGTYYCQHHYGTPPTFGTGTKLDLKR ?
2.4
